System: SN12C renal
method_description: NCI tumour cell line growth inhibition, 48 h; in the data active = GI50 below about 0.43 µM; inactive = the rest
Select the matching outcome among active, inactive

compound	label_class
CCc1c2c(nc3cccc(N)c13)-c1cc3c(c(=O)n1C2)COC(=O)[C@]3(O)CC	active

Which result was noted for this compound in the test: COc1ccc(-c2ccc(/C=N/n3c(COc4ccc(Cl)cc4)n[nH]c3=S)o2)c([N+](=O)[O-])c1 inactive

Which result was noted for this compound in the test: O=c1[nH]cnc2c(C3OC(CO)C(O)C3O)scc12 (centres undefined) inactive

Which result was noted for this compound in the test: C=C(C)CCC(C)N1CCC(N2CCC(C(=O)NCCc3ccccc3)CC2)CC1 (centres undefined) inactive
